System: 186277-243-T-J2-PDC complex spheroid viability;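 also: spheroids exposed to compounds for seven days; 100% = DMSO vehicle control viability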
TEST SUMMARY: Anticancer human tumor 186277-243-T-J2-PDC patient-derived colon adenocarcinoma cell line growth inhibition [POLQ]
MEASUREMENT PARAMETERS: second compound 0.316 µM; first compound 3.16 µM; active compounds read low
Exam item: assign label 1 to entries whose viability, T/C is below 70% and label 0 to entries at or above 70%. Note that a value of exactly 70% receives label 0.

Consider the following illustrative entries.
CC1COCCN1c1cc(C2(S(C)(=N)=O)CC2)nc(-c2ccnc3[nH]ccc23)n1 (stereo not given) + Nc1ccc(C#CCN(C(=O)Cc2ncc(C(F)(F)F)cc2C(F)(F)F)c2ccc(F)cc2)nn1 = label 1
C=CC(=O)N1CCN(c2nc(=O)n(-c3c(C)ccnc3C(C)C)c3nc(-c4c(O)cccc4F)c(F)cc23)C(C)C1 (stereo not given) + Nc1ccc(C#CCN(C(=O)Cc2ncc(C(F)(F)F)cc2C(F)(F)F)c2ccc(F)cc2)nn1 = label 0
COc1cccc2c1C(=O)c1c(O)c3c(c(O)c1C2=O)CC(O)(C(=O)CO)CC3OC1CC(N)C(O)C(C)O1 (stereo not given) + Cc1cccc(N(C)C(=O)C2C(O)CCN2c2nc(C)cc(C(F)(F)F)c2C#N)c1 = label 1

Q: Item CC1COCCN1c1cc(-c2ccnn2C)c2ccnc(-c3ccn[nH]3)c2n1 (stereo not given) + COC1C(OC(N)=O)C(O)C(Oc2ccc3c(O)c(NC(=O)c4ccc(O)c(CC=C(C)C)c4)c(=O)oc3c2C)OC1(C)C : viability, T/C beneath 70%, strictly?
A: label 1

Q: Item CNCc1ccc(-c2[nH]c3cc(F)cc4c3c2CCNC4=O)cc1 + Nc1ccc(C#CCN(C(=O)Cc2ncc(C(F)(F)F)cc2C(F)(F)F)c2ccc(F)cc2)nn1 : viability, T/C beneath 70%, strictly?
A: label 0
